This collection of values is drawn from patent US20180086804A1.

biological target: T1, HLA-DR1 (HLA-DRB1*01:01) (human); assay: competition ELISA vs biotin-HA 306-318;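 further: HLA and competitor incubated 24 to 72 h, maximal signal taken from wells lacking competitor, background from wells lacking HLA molecule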
T1 construct: mature; class II HLA molecule purified from homozygous EBV-transformed lymphoblastoid cells with antibody L243
No end group written: not given here.
# key: entry, value: relative affinity

| BINDER | relative affinity |
| --- | --- |
| TAMFIASKYEEMYPP-NH2 [CCNB1 250-264] | 22 |
| PTLQHYLSYTEESLL-NH2 [CCNB1 363-377] | 28 |
| FRLLQETMYMTVSII-NH2 [CCNB1 216-230] | 7 |
| SQIAAGAFCLALKIL-NH2 [CCNB1 342-356] | 46 |
